The values you see were collected from ChEMBL document CHEMBL4270481.

target: Cyclin-dependent kinase 2/cyclin E1 (Homo sapiens, UniProt P24941); assay: Inhibition of human CDK2/cyclin E expressed in Sf9 insect cells using histone H1 as substrate in presence of [gamma-33P]ATP
MEASUREMENT LABEL: IC50

Example compounds with recorded IC50:
CCc1cccc(-c2nn3c(c2-c2ccc(O)cc2)[C@@H](C)C(C)(C)C3)n1: 53 µM
Cc1cccc(-c2nn3c(c2-c2ccc(O)cc2)C(C)C(C)(C)C3)c1C#N (stereo not given): > 12 µM
Cc1cccc(-c2nn3c(c2-c2ccc(O)cc2)C(C)C(C)(C)C3)n1 (stereo not given): > 100 µM
CCc1cccc(-c2nn3c(c2-c2ccc(O)cc2)C(C)C(C)(C)C3)n1 (stereo not given): > 100 µM
CCOC(=O)c1ccc(-c2c(-c3cccc(C)n3)nn3c2C(C)C(C)(C)C3)cc1 (stereo not given): > 100 µM

Prompt line: Look up and state reported IC50 for Cc1cccc(-c2n[nH]cc2-c2ccc3ncccc3n2)n1 [GW786460X]
Response line: > 100 µM

Prompt line: Look up and state reported IC50 for CC1c2c(-c3ccc(O)cc3)c(-c3ccccc3C#N)nn2CC1(C)C (stereo not given)
Response line: > 12 µM

====

molecular target: Cyclin-dependent kinase 2/cyclin E1 (Homo sapiens); assay: Inhibition of human CDK2/cyclin E expressed in Sf9 insect cells using histone H1 as substrate in presence of [gamma-33P]ATP
pIC50: −log10 of the molar value.
MEASUREMENT LABEL: pIC50

Example molecules with recorded pIC50:
Cc1cc(-c2c(-c3cccc(C)n3)nn3c2C(C)C(C)(C)C3)ccn1 (stereo not given): < 4.00
CCc1cccc(-c2nn3c(c2-c2ccc(O)cc2)[C@H](C)C(C)(C)C3)n1: < 4.00
COc1ccc(-c2c(-c3cccc(C)n3)nn3c2C(C)C(C)(C)C3)cc1 (stereo not given): < 4.00
Cc1cccc(-c2nn3c(c2-c2ccncc2)C(C)C(C)(C)C3)c1C#N (stereo not given): < 4.00

Prompt line: Look up and state reported pIC50 for `CC1(C)Cc2c(-c3ccncc3)c(-c3ccccn3)nn2C1`
Response line: < 4.30

====

molecular target: UniProtKB P36897; assay: Inhibition of human ALK5 expressed in Sf9 insect cells using casein as substrate in presence of [gamma-33P]ATP
Sequence (P36897 whole entry): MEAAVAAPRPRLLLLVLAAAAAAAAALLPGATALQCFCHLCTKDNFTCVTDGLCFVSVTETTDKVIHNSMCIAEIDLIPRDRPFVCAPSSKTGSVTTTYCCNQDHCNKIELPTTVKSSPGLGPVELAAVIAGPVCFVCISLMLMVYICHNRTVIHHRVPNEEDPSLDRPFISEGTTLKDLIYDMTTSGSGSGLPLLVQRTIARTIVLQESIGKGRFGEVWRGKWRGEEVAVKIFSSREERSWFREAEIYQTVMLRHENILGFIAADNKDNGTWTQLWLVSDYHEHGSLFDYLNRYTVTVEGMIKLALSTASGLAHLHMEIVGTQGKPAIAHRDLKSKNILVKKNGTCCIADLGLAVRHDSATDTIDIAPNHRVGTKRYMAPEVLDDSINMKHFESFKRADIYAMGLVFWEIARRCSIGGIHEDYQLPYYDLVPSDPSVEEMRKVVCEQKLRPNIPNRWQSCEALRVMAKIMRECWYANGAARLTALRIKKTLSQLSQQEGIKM
Consider the following molecules and their measured IC50 readings.
Note: unit µM is implicit; provide only the numeric part.

Cc1cccc(-c2nn3c(c2-c2ccncc2)C(CO)C(C)(C)C3)n1 (stereo not drawn): 1.41

Prompt line: Look up and state reported IC50 for `Cc1cccc(-c2nn3c(c2-c2ccnc(Cl)c2)CC(C)(C)C3)n1`
Response line: 1.23

Prompt line: Look up and state reported IC50 for COCC1c2c(-c3ccncc3)c(-c3cccc(C)n3)nn2CC1(C)C (stereo not drawn)
Response line: 0.743

====

target: Tyrosine-protein kinase ABL1 (Mus musculus, UniProt P00520); experiment: biochemical
Sequence (P00520 whole entry): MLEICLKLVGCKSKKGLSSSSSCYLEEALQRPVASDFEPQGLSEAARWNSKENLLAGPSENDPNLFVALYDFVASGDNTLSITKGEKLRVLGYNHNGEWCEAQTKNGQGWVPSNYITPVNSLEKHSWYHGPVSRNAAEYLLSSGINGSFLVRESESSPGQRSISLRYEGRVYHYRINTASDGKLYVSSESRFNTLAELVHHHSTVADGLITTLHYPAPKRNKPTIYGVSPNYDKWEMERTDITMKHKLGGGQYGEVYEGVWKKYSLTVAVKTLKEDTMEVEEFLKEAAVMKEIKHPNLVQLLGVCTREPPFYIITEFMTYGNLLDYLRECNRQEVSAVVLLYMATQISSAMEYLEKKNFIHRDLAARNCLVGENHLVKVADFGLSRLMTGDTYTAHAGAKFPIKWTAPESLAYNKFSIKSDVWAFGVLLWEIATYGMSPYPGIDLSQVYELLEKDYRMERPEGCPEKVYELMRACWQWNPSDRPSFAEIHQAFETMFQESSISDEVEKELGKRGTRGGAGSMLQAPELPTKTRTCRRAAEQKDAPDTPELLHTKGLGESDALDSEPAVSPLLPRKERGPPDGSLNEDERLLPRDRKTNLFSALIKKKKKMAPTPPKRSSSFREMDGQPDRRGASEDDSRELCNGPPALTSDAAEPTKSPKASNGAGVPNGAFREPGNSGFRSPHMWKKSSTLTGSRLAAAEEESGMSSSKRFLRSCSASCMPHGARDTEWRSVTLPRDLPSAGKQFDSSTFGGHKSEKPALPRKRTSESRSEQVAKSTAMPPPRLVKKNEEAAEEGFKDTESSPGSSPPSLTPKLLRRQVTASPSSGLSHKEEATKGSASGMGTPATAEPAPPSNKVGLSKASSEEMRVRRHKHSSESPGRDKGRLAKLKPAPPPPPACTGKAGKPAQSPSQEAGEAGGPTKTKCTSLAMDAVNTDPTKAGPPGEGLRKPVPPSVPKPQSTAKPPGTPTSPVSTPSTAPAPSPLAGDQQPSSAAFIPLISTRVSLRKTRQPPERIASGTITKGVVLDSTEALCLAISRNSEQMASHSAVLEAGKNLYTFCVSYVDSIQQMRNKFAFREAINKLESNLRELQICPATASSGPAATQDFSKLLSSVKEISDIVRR
Consider the following compounds and their measured IC50 readings.

CCOC(=O)c1ccc(-c2c(-c3cccc(C)n3)nn3c2C(C)C(C)(C)C3)cc1 (stereo unspecified): > 100 µM
CCc1cccc(-c2nn3c(c2-c2ccc(O)cc2)[C@@H](C)C(C)(C)C3)n1: > 100 µM
CC1(C)Cc2c(-c3ccc(O)cc3)c(-c3ccccn3)nn2C1: > 100 µM
CC1c2c(-c3ccc(O)cc3)c(-c3ccccc3C#N)nn2CC1(C)C (stereo unspecified): > 12 µM
CCc1cccc(-c2nn3c(c2-c2ccc(O)cc2)[C@H](C)C(C)(C)C3)n1: > 100 µM

Prompt line: Look up and state reported IC50 for CCc1cccc(-c2nn3c(c2-c2ccc(O)cc2)C(C)C(C)(C)C3)n1 (stereo unspecified)
Response line: > 100 µM

Prompt line: Look up and state reported IC50 for `Cc1cccc(-c2nn3c(c2-c2ccc(O)cc2)[C@H](C)C(C)(C)C3)n1`
Response line: > 100 µM

Prompt line: Look up and state reported IC50 for Cc1cccc(-c2nn3c(c2-c2ccnc(Cl)c2)C(C)C(C)(C)C3)n1 (stereo unspecified)
Response line: > 100 µM

Prompt line: Look up and state reported IC50 for Cc1cccc(-c2nn3c(c2-c2ccc(O)cc2)C(C)C(C)(C)C3)c1C#N (stereo unspecified)
Response line: > 12 µM

Prompt line: Look up and state reported IC50 for `Cc1cccc(-c2nn3c(c2-c2ccc(O)cc2)[C@@H](C)C(C)(C)C3)n1`
Response line: > 100 µM

Prompt line: Look up and state reported IC50 for CCc1cccc(-c2nn3c(c2-c2ccnc(Cl)c2)C(C)C(C)(C)C3)n1 (stereo unspecified)
Response line: > 100 µM
